Listed next: entries and their corresponding pIC50.
# Assay System: influenza A virus (IAV) PA-Nter fragment (amino acids 1-209) (Influenza A virus, UniProt P31343)
# Construct: PA-Nter fragment (amino acids 1-209); made in house
# Assay Overview: biochemical
# Particulars: FRET IC50
// scale note: pIC50 = -log10(conc_M); give the bare number

Look over these answered cases.
>>> number("CC(C)N1CCn2c(COC(=O)c3cccn4c(=O)[nH]nc34)cc(=O)c(O)c2C1=O")
6.39
>>> number("CC(C)[C@H](Nc1nc(-c2n[nH]c3ncc(F)cc23)ncc1F)C(=O)NCc1cc(=O)c(O)c2n1CCN(C(C)C)C2=O")
5.09
>>> number("CC(C)N1CCn2c(CNC(=O)c3cccc(Nc4nccc5[nH]ncc45)c3)cc(=O)c(O)c2C1=O")
6.26

stdin: Indicate the recorded pIC50 value for this compound: "CC(C)N1CCn2c(COCCOc3nccc4[nH]ncc34)cc(=O)c(O)c2C1=O"
stdout: 6.43

stdin: Indicate the recorded pIC50 value for this compound: "CC(C)N1CCn2c(CNC(=O)C3(NC(=O)c4cccn5c(=O)[nH]nc45)CCCCC3)cc(=O)c(O)c2C1=O"
stdout: 5.55
